Listed below: %Inh values for each entry.
Test system: ULK3
Settings: concentration: 1 μM, replicates: in singlicate; n = 1
MEASURED_PARAMETER: %Inh (%)

Cl.NC(=O)c1cccc(Nc2nccc(Nc3ccc(Oc4cccc(Cl)c4)c(Cl)c3)n2)c1 [GW659008]; 0
Fc1cc(Cl)ccc1Nc1ccnc2cc(-c3ccc(CN4CCCCC4)o3)ccc12 [GW560116]; 0
CC(C)(C)c1ccc(C(=O)Nc2cn3cc(-c4cccnc4)ccc3n2)cc1; 33
Cl.O=C(Nc1cccc(-c2nn3ncccc3c2-c2ccnc(Nc3cccnc3)n2)c1)c1c(F)cccc1F [GSK312879]; 5
Cc1cc(-c2ccc3c(c2)CC[C@@H](N[C@@H](C)c2ccccc2)C3)cnc1N.Cl [GW412617]; 16
COc1ccc2nc(-c3cccc(C)n3)nc(Nc3ccncc3)c2c1 [GSK204919]; 2
COc1cc2nccc(Nc3ccc(NC(=O)c4ccc(C)cc4)c(O)c3)c2cc1OC.Cl [GW440132]; 7
O=C(Nc1n[nH]c2nc(-c3nccs3)c(Br)cc12)C1CCCC1 [SB-742609]; 18
O=C(Nc1n[nH]c2nc(-c3nccs3)c(Br)cc12)C1CC1 [SB-742251]; 0

====

System: HIPK3
Settings: concentration: 1 μM, replicates: in singlicate; n = 1
Threshold-based label: %Inh under 3% gives yes, %Inh not under 3% gives no.

COc1ccccc1-c1ccc2c(NC(=O)C3CC3)n[nH]c2n1; yes
COc1cc2ncnc(Nc3ccc4nc(-c5ccccc5)[nH]c4c3)c2cc1OC.Cl; no
Cc1cccc(-c2nc(Nc3cccc(C(N)=O)c3)c3ccccc3n2)n1; yes
CCCc1ccc(S(=O)(=O)NC2CCN(c3ccnc(Nc4ccc(F)cc4)n3)C2)cc1 (centres unmarked); yes

====

Measured pKd (PDGFRA)
pKd: −log10 of the molar value.
MEASURED_PARAMETER: pKd

Cc1cccc(-c2nc(-c3ccc(S(C)(=O)=O)cc3)sc2-c2ccnc(NCCc3ccccc3)c2)c1; 6.26
O=C(Nc1ccccc1)Nc1cccc(Oc2ccc3nccn3n2)c1; 8.44
Cn1ccc2ncnc(Oc3ccc(NC(=O)Nc4ccccc4)cc3)c21; 7.60

====

Test system: MEK4
Construct: gene MAP2K4
Details: concentration: 1 μM, replicates: in singlicate; n = 1
Class boundaries, taken from values of %Inh, are as follows: lower level (below 6%), middle level (6% to below 20%), upper level (20% or more)

O=C(Nc1ccc2c(c1)OCO2)NC1CCN(c2ccnc(Nc3ccc(F)cc3)n2)C1 (stereo not shown) [GSK1379724]; upper level
O=S(=O)(c1ccc(-c2ccnc3[nH]ccc23)cc1)N1CCCC1 [GSK846226]; middle level
Cl.NC(=O)c1cccc(Nc2nccc(Nc3ccc(Oc4cccc(Cl)c4)c(Cl)c3)n2)c1 [GW659008]; upper level
COc1cc2ncn(-c3cc(OCC4CCCO4)c(C(N)=O)s3)c2cc1OC (stereo not shown) [GSK204607]; lower level
COc1ccccc1CNC(=O)c1cc(C(=O)c2ccccc2C)c[nH]1 [GSK364507]; upper level
COC(=O)c1c(-c2ccccc2)c2cc(OC)ccc2c(=O)n1Cc1ccccc1; middle level
Cc1cc(NCC(c2ccccc2)c2ccccc2)nc(NCc2ccc(C(F)(F)F)cc2)n1 [GW497681]; middle level
CS(=O)(=O)c1ccc(-c2c(-c3ncn[nH]3)sc(N3CCOCC3)c2C#N)cc1; lower level
O=C(Nc1ccccc1)Nc1cccc(Oc2ccc3nccn3n2)c1; lower level
COC(=O)c1c(-c2ccccc2)c2cc(C(=O)O)ccc2c(=O)n1Cc1ccccc1; lower level
Nc1nc(-c2nccs2)c(-c2ccnc3ccccc23)s1 [GW693542]; upper level
COc1cccc(-c2cc(-c3c[nH]nc3-c3ccccn3)ccn2)c1 [GW680338]; middle level
COc1ccc(C2=C(Nc3cccc(C(=O)O)c3)C(=O)NC2=O)cc1 [SB-390765]; middle level
Cc1cc(N2Cc3ccccc3C2)nc(Nc2ccc(S(=O)(=O)N3CCOCC3)cc2)n1.Cl [GSK1669917]; lower level
O=C(Nc1n[nH]c2cc(-c3cccc(F)c3F)ccc12)C1CC1 [SB-733894]; lower level
Cc1c(O)cccc1Nc1ccnc2ccc(C(F)(F)F)cc12.Cl [GW466413]; middle level
Cn1cncc1-c1ccc2ncnc(Nc3ccc(OCc4ccccc4)cc3)c2c1 [GW320571]; upper level
Cc1nnc(-c2ccc3occ(-c4ccc(S(C)=O)cc4)c3c2)[nH]1 (stereo not shown); upper level

====

System: CAMK2G
Settings: concentration: 1 μM, replicates: in singlicate; n = 1
Threshold-based label: %Inh under 20% gives Fulfilled, %Inh not under 20% gives Not fulfilled.

Cl.NC(=O)c1cccc(Nc2nccc(Nc3ccc(Oc4cccc(Cl)c4)c(Cl)c3)n2)c1; Fulfilled
Cl.O=C(Nc1cccc(-c2nn3ncccc3c2-c2ccnc(Nc3cccnc3)n2)c1)c1c(F)cccc1F; Fulfilled
Cc1cc(NCC(c2ccccc2)c2ccccc2)nc(NCc2ccc(C(F)(F)F)cc2)n1; Not fulfilled
CC(=O)Nc1nc2cnc(Nc3cc(NC(=O)c4cccc(CCC#N)c4)ccc3C)nc2s1; Fulfilled
CN(C)CCN(C)C(=O)c1cc(-c2ccncc2)c(-c2ccc(Cl)c(O)c2)o1.Cl.Cl; Fulfilled
Fc1cc(Cl)ccc1Nc1ccnc2cc(-c3ccc(CN4CCCCC4)o3)ccc12; Not fulfilled
COc1cccc(NC(=O)NC2CCN(c3ccnc(Nc4ccc(F)cc4)n3)C2)c1 (centres unmarked); Not fulfilled
COc1cc2ncnc(Nc3ccc4nc(-c5ccccc5)[nH]c4c3)c2cc1OC.Cl; Not fulfilled

====

Listed below: %Inh values for each entry.
Test system: RSK2(Kin.Dom.2-C-terminal)
Construct: gene RPS6KA3
Details: concentration: 1 μM, replicates: in singlicate; n = 1
MEASURED_PARAMETER: %Inh (%)

COc1ccccc1CNC(=O)c1cc(C(=O)c2ccccc2C)c[nH]1 [GSK364507]; 0
Cc1cc(-c2ccc3c(c2)CC[C@@H](N[C@@H](C)c2ccccc2)C3)cnc1N.Cl [GW412617]; 47
Cl.Oc1ccc(-c2nc(-c3ccccc3)[nH]c2-c2ccncc2)cc1 [SB-428218]; 0
COc1cc(Nc2nccc(N3CCC(NC(=O)Nc4cc(C)ccc4C)C3)n2)cc(OC)c1OC (centres unmarked) [GSK1379762]; 2
Cc1ccc(C(=O)Nc2ccc(Nc3ccnc4cc(-c5ccccn5)ccc34)cc2O)cc1.Cl [GW440146]; 4

====

Listed below: %Inh values for each entry.
Tested on: EPHB2
Details: concentration: 1 μM, replicates: in singlicate; n = 1
MEASURED_PARAMETER: %Inh (%)

Cc1nnc(-c2ccc3occ(-c4ccc(S(C)=O)cc4)c3c2)[nH]1 (stereo not drawn); 16
Cn1ccc2ncnc(Oc3ccc(NC(=O)Nc4ccccc4)cc3)c21; 1
O=C(Nc1n[nH]c2nc(-c3nccs3)c(Br)cc12)C1CC1; 15
NC(=O)c1nnc2ccccc2c1N; 13
COc1cc2ncn(-c3cc(OCC4CCCO4)c(C(N)=O)s3)c2cc1OC (stereo not drawn); 0
CC1=C(C(=O)Nc2cc3cn[nH]c3cc2F)C(c2ccc(C(F)(F)F)cc2)CC(=O)N1 (stereo not drawn); 10

====

Listed below: %Inh values for each entry.
Test system: MYO3A
Conditions: concentration: 1 μM, replicates: in singlicate; n = 1
MEASURED_PARAMETER: %Inh (%)

Cc1c(O)cccc1Nc1ccnc2ccc(C(F)(F)F)cc12.Cl; 0
COc1cc(Nc2nccc(N3CCC(NC(=O)Nc4cc(C)ccc4C)C3)n2)cc(OC)c1OC (stereo not drawn); 2
Cc1ccc(NC(=O)Nc2cc(C(C)(C)C)nn2-c2ccccc2)cc1; 0
Cc1ccc(C(=O)Nc2ccc(Nc3ccnc4cc(-c5ccccn5)ccc34)cc2O)cc1.Cl; 11
COc1ccc2nc(-c3cccc(C)n3)nc(Nc3ccncc3)c2c1; 0
COc1cc2nccc(Nc3ccc(NC(=O)c4ccc(C)cc4)c(O)c3)c2cc1OC.Cl; 10

====

System: QSK
Settings: concentration: 1 μM, replicates: in singlicate; n = 1
MEASURED_PARAMETER: %Inh (%)

COc1ccc2nc(-c3cccc(C)n3)nc(Nc3ccncc3)c2c1 [GSK204919]; 0
O=C(O)COc1ncnc2cc(-c3ccc4[nH]ncc4c3)sc12; 0
COc1ccc(CNC(=O)NC2CCN(c3ccnc(Nc4cc(OC)c(OC)c(OC)c4)n3)C2)cc1 (stereo not drawn) [GSK1379748]; 0
Cc1ccccc1-n1cnc2c(N)ncnc21 [SKF-97510]; 0
COc1cc2nccc(Nc3ccc(NC(=O)c4ccc(C)cc4)c(O)c3)c2cc1OC.Cl [GW440132]; 2
Fc1cc(Cl)ccc1Nc1ccnc2cc(-c3ccc(CN4CCCCC4)o3)ccc12 [GW560116]; 29
C[C@@H]1CCCCN1c1cc(-c2ccc3c(N)n[nH]c3c2)nc(N)n1 [GSK2258759]; 0
Cc1cccc(-c2nc(C)cc(Nc3ccncc3)n2)n1 [GSK257997]; 0
CC1=C(C(=O)Nc2cc3cn[nH]c3cc2F)C(c2ccc(C(F)(F)F)cc2)CC(=O)N1 (stereo not drawn) [GSK429286]; 14
Cc1ccc(-c2cc(-c3c[nH]nc3-c3ccccn3)ccn2)cc1 [GW684088]; 0
COC(=O)c1c(-c2ccccc2)c2cc(C(=O)O)ccc2c(=O)n1Cc1ccccc1; 0
CN(C)CCN(C)C(=O)c1cc(-c2ccncc2)c(-c2ccc(Cl)c(O)c2)o1.Cl.Cl [SB-710397]; 0
COc1ccccc1CNC(=O)c1cc(C(=O)c2ccccc2C)c[nH]1 [GSK364507]; 8
O=C(Nc1ccccc1)Nc1cccc(Oc2ccc3nccn3n2)c1; 0
CCn1c(-c2ccccn2)nc2cnccc21 [SB-736398]; 0
CCn1c(-c2cccnc2O)nc2cnccc21 [SB-736715]; 0
Cn1ccc2ncnc(Oc3cccc(C(=O)Nc4ccccc4)c3)c21; 0
CC(=O)Nc1nc2cnc(Nc3cc(NC(=O)c4cccc(CCC#N)c4)ccc3C)nc2s1; 0
COc1ccc(Nc2nccc(NCCNC(=O)Nc3ccccc3F)n2)cc1 [GSK1379901]; 3
O=C1NC(=O)C(N2CCc3ccccc32)=C1c1ccccc1Cl [SB-373598]; 4
Cc1ccc(NC(=O)Nc2cccc(Cl)c2)cc1-c1ccc(C(=O)Nc2ccncc2)cc1 [GSK1398468]; 0
Cc1cccc(-c2nc(Nc3cccc(C(N)=O)c3)c3ccccc3n2)n1 [GW876019]; 0
O=S(=O)(c1ccc(-c2ccnc3[nH]ccc23)cc1)N1CCCC1 [GSK846226]; 0
Clc1cc(Cl)cc(Nc2ccnc(Nc3cc(Cl)cc(Cl)c3)n2)c1 [GSK175726]; 0
COc1cc(Nc2nccc(N3CCC(NC(=O)Nc4cc(C)ccc4C)C3)n2)cc(OC)c1OC (stereo not drawn) [GSK1379762]; 0
CS(=O)(=O)c1ccc(-c2c(-c3ncn[nH]3)sc(N3CCOCC3)c2C#N)cc1; 0
Cc1c(O)cccc1Nc1ccnc2ccc(C(F)(F)F)cc12.Cl [GW466413]; 3
Nc1nc(-c2nccs2)c(-c2ccnc3ccccc23)s1 [GW693542]; 0
Cc1cccc(-c2nc(Nc3ccncc3)c3ccccc3n2)n1 [GW855857]; 0
CN1C(=O)C(Nc2ccc(Cl)c(C(=O)O)c2)=C(c2ccc(Cl)cc2)C1=O [SB-404290]; 40

// data source = paper PMC5540273
